Sourced from the supplement of paper PMC8007513

System: Trichoderma virens ATCC 9645
Test: growth yield (OD600) with compound + IPBC relative to untreated control; higher = less growth inhibition
Settings: compound concentration: 100 uM; IPBC concentration: 200 ng/ml; 72 h
Structures can show the parent of a compound that is named as a salt. The campaign covered roughly 1,300 compounds. About 130 (10%) showed an effect of 50% or more. The entries come from a sample that favours strong results as a whole.
propertyName: growth yield (%)
Entry rule: numbers only, all in %.

compound	experimentalSystem	growth yield, %
OCc1cc(C(O)CNCCCCCCOCCCCc2ccccc2)ccc1O (stereo unspecified) [Salmeterol] + CCCCNC(=O)OCC#CI [3-iodo-2-propynyl butylcarbamate (IPBC)]	Trichoderma virens ATCC 9645	75.1
CCOC(=O)OC(C)OC(=O)[C@@H]1N2C(=O)[C@@H](NC(=O)[C@H](N)c3ccccc3)[C@H]2SC1(C)C (stereo partly specified) [Bacampicillin hydrochloride] + CCCCNC(=O)OCC#CI [3-iodo-2-propynyl butylcarbamate (IPBC)]	Trichoderma virens ATCC 9645	92.3
CC(=O)N[C@@H](CC(C)C)C(=O)O [N-Acetyl-L-leucine] + CCCCNC(=O)OCC#CI [3-iodo-2-propynyl butylcarbamate (IPBC)]	Trichoderma virens ATCC 9645	93.8
NS(=O)(=O)c1cc(C(=O)O)cc(N2CCCC2)c1Oc1ccccc1 [Piretanide] + CCCCNC(=O)OCC#CI [3-iodo-2-propynyl butylcarbamate (IPBC)]	Trichoderma virens ATCC 9645	101
O=P(O)(O)C(O)(Cc1cccnc1)P(=O)(O)O [Risedronic acid monohydrate] + CCCCNC(=O)OCC#CI [3-iodo-2-propynyl butylcarbamate (IPBC)]	Trichoderma virens ATCC 9645	91.7

Task item: Checklist item: growth yield tested on Trichoderma virens ATCC 9645, entry CCC1(c2ccccc2)NC(=O)N(C)C1=O (stereo unspecified) [Mephenytoin] + CCCCNC(=O)OCC#CI [3-iodo-2-propynyl butylcarbamate (IPBC)] , value?
Reply: 100

Task item: What would you report for COc1ncnc(NS(=O)(=O)c2ccc(N)cc2)c1OC [Sulfadoxine] + CCCCNC(=O)OCC#CI [3-iodo-2-propynyl butylcarbamate (IPBC)] ?
Reply: 84.7

Task item: Also OC(c1cc(C(F)(F)F)nc2c(C(F)(F)F)cccc12)C1CCCCN1 (stereo unspecified) [Mefloquine hydrochloride] + CCCCNC(=O)OCC#CI [3-iodo-2-propynyl butylcarbamate (IPBC)] , if possible.
Reply: 103

Task item: Further, for CCN1CCC[C@H]1CNC(=O)c1c(OC)ccc(Br)c1OC [Remoxipride Hydrochloride] + CCCCNC(=O)OCC#CI [3-iodo-2-propynyl butylcarbamate (IPBC)] ?
Reply: 99

Task item: Try this compound too: C=CCN1CCCC1CNC(=O)c1cc2nn[nH]c2cc1OC (stereo unspecified) [Alizapride hydrochloride] + CCCCNC(=O)OCC#CI [3-iodo-2-propynyl butylcarbamate (IPBC)]
Reply: 107

Task item: Next compound: Cc1[nH]cnc1CN1CCc2c(c3ccccc3n2C)C1=O [Alosetron hydrochloride] + CCCCNC(=O)OCC#CI [3-iodo-2-propynyl butylcarbamate (IPBC)]
Reply: 87.9

Task item: Could you do the same for Cc1cc(NS(=O)(=O)c2ccc(N)cc2)no1 [Sulfamethoxazole] + CCCCNC(=O)OCC#CI [3-iodo-2-propynyl butylcarbamate (IPBC)] , please?
Reply: 80

Task item: Please answer likewise for NCC(CC(=O)O)c1ccc(Cl)cc1 (racemic) [Baclofen (R,S)] + CCCCNC(=O)OCC#CI [3-iodo-2-propynyl butylcarbamate (IPBC)]
Reply: 96.8

Task item: Repeat with Cn1c(=O)c2c(ncn2CC(=O)O)n(C)c1=O [Acefylline] + CCCCNC(=O)OCC#CI [3-iodo-2-propynyl butylcarbamate (IPBC)]
Reply: 91.1

Task item: And what about the compound O=P(O)(O)C(O)(Cn1ccnc1)P(=O)(O)O [Zoledronic acid hydrate] + CCCCNC(=O)OCC#CI [3-iodo-2-propynyl butylcarbamate (IPBC)] ?
Reply: 105

Task item: Here is the next compound: Nc1ncnc2c1ncn2[C@@H]1O[C@H](CO)[C@@H](O)[C@@H]1O [Vidarabine] + CCCCNC(=O)OCC#CI [3-iodo-2-propynyl butylcarbamate (IPBC)]
Reply: 109

Task item: Further, for CCN(CC)C(=O)Nc1ccc(OCC(O)CNC(C)(C)C)c(C(C)=O)c1 (stereo unspecified) [Celiprolol hydrochloride] + CCCCNC(=O)OCC#CI [3-iodo-2-propynyl butylcarbamate (IPBC)] ?
Reply: 92.2

Task item: Item: CC(C)(C)NC[C@H](O)c1ccc(O)c(CO)c1 [Levalbuterol hydrochloride] + CCCCNC(=O)OCC#CI [3-iodo-2-propynyl butylcarbamate (IPBC)]
Reply: 90.3

Task item: Likewise for Nc1nc(F)nc2c1ncn2[C@@H]1O[C@H](CO)[C@@H](O)[C@@H]1O [Fludarabine] + CCCCNC(=O)OCC#CI [3-iodo-2-propynyl butylcarbamate (IPBC)] ?
Reply: 86.6

Task item: And for Cc1cc(C)nc(NS(=O)(=O)c2ccc(N)cc2)n1 [Sulfamethazine sodium salt] + CCCCNC(=O)OCC#CI [3-iodo-2-propynyl butylcarbamate (IPBC)] ?
Reply: 98.5

Task item: Please give the result for CC(Cc1cccc(C(F)(F)F)c1)NCCOC(=O)c1ccccc1 (stereo unspecified) [Benfluorex] + CCCCNC(=O)OCC#CI [3-iodo-2-propynyl butylcarbamate (IPBC)] too.
Reply: 81.8

###

System: Trichoderma virens ATCC 9645
Experiment: growth yield (OD600) with compound + IPBC relative to untreated control; higher = less growth inhibition
Conditions: compound concentration: 100 uM; IPBC concentration: 200 ng/ml; 72 h
The campaign covered roughly 1,300 compounds. About 130 (10%) showed an effect of 50% or more. This excerpt belongs to a sample that is enriched for strong results.
propertyName: growth yield (%)
Your answer is read as %, so omit the unit and give the number.

compound	growth yield, %
CCN[C@H]1CN(CCCOC)S(=O)(=O)c2sc(S(N)(=O)=O)cc21 [Brinzolamide] + CCCCNC(=O)OCC#CI [3-iodo-2-propynyl butylcarbamate (IPBC)]	86.3

Let us move to another entry and its growth yield.
Task item: If you can, please state the reported growth yield value of CO[C@@H]1[C@@H](O[C@@H]2O[C@H](C)[C@@H](O[C@H]3C[C@@](C)(O)[C@@H](OC(=O)CC(C)C)[C@H](C)O3)[C@H](N(C)C)[C@H]2O)[C@@H](CC=O)C[C@@H](C)[C@@H](O)/C=C/C=C/C[C@@H](C)OC(=O)C[C@H]1OC(C)=O [Josamycin] + CCCCNC(=O)OCC#CI [3-iodo-2-propynyl butylcarbamate (IPBC)] .
Reply: 103

###

System: Trichoderma virens ATCC 9645
Assay: growth yield (OD600) with compound + IPBC relative to untreated control; higher = less growth inhibition
Settings: compound concentration: 100 uM; IPBC concentration: 200 ng/ml; 72 h
Hit rate of the full screen: of about 1,300 compounds, about 130 (10%) showed an effect of 50% or more. This is one part of a sample in which strong results are shown more often than they occur.
propertyName: growth yield (%)
Write it as a number; the unit % goes unstated.

Examples with answers:
compound	experimentalSystem	units	obsValue
C[C@]12C[C@H](O)[C@H]3[C@@H](CCC4=CC(=O)CC[C@@]43C)[C@@H]1CC[C@@H]2C(=O)CO [Corticosterone] + CCCCNC(=O)OCC#CI [3-iodo-2-propynyl butylcarbamate (IPBC)]	Trichoderma virens ATCC 9645	%	96.6
CC1OC(OC2/C=C/C=C/C=C/C=C/CC/C=C/C=C/[C@H](C)[C@@H](O)[C@@H](C)[C@H](C)OC(=O)CC(O)CC(O)CC(O)CCC(O)C(O)C[C@]3(O)CC(O)C(C(=O)O)C(C2)O3)C(O)C(N)C1O (some centres undefined) [Nystatine] + CCCCNC(=O)OCC#CI [3-iodo-2-propynyl butylcarbamate (IPBC)]	Trichoderma virens ATCC 9645	%	104
CC(C)(Oc1ccc(C2CC2(Cl)Cl)cc1)C(=O)O (centres undefined) [Ciprofibrate] + CCCCNC(=O)OCC#CI [3-iodo-2-propynyl butylcarbamate (IPBC)]	Trichoderma virens ATCC 9645	%	82.2

Task item: # input compound: C[C@@H]1[C@H](O)[C@@H](C)/C=C/C=C/C=C/C=C/C=C/C=C/C=C/[C@H](O[C@@H]2O[C@H](C)[C@@H](O)[C@H](N)[C@@H]2O)C[C@@H]2O[C@](O)(C[C@@H](O)C[C@@H](O)[C@H](O)CC[C@@H](O)C[C@@H](O)CC(=O)O[C@H]1C)C[C@H](O)[C@H]2C(=O)O [Amphotericin B] + CCCCNC(=O)OCC#CI [3-iodo-2-propynyl butylcarbamate (IPBC)] ; wanted: its growth yield
Reply: 92.6

###

Test system: Trichoderma virens ATCC 9645
Experiment: growth yield (OD600) with compound + IPBC relative to untreated control; higher = less growth inhibition
Conditions: compound concentration: 100 uM; IPBC concentration: 200 ng/ml; 40 h
In all, about 1,300 compounds went through this assay and about 130 (10%) showed an effect of 50% or more. The full list was thinned out, with strong results kept by preference.
propertyName: growth yield (%)
Answer format: numeric, % implied, no suffix.

compound	growth yield (%)
CC(C)(C)CC(C)(C)c1ccc(OCCOCC[N+](C)(C)Cc2ccccc2)cc1 [Benzethonium chloride] + CCCCNC(=O)OCC#CI [3-iodo-2-propynyl butylcarbamate (IPBC)]	3.18
C[C@H](Cc1cc2c(c(C(N)=O)c1)N(CCCO)CC2)NCCOc1ccccc1OCC(F)(F)F [Silodosin] + CCCCNC(=O)OCC#CI [3-iodo-2-propynyl butylcarbamate (IPBC)]	87

Let us move to another entry and its growth yield.
Task item: Value lookup for growth yield; key = Cc1cc(C(C)(C)CC(C)(C)C)ccc1OCCOCC[N+](C)(C)Cc1ccccc1 [Methyl benzethonium chloride] + CCCCNC(=O)OCC#CI [3-iodo-2-propynyl butylcarbamate (IPBC)]
Reply: 2.86
